Form field: IC50 (one value per entry).
study system: PI3K δ (Homo sapiens, UniProt O00329)
Sequence (O00329 whole entry, species assumed): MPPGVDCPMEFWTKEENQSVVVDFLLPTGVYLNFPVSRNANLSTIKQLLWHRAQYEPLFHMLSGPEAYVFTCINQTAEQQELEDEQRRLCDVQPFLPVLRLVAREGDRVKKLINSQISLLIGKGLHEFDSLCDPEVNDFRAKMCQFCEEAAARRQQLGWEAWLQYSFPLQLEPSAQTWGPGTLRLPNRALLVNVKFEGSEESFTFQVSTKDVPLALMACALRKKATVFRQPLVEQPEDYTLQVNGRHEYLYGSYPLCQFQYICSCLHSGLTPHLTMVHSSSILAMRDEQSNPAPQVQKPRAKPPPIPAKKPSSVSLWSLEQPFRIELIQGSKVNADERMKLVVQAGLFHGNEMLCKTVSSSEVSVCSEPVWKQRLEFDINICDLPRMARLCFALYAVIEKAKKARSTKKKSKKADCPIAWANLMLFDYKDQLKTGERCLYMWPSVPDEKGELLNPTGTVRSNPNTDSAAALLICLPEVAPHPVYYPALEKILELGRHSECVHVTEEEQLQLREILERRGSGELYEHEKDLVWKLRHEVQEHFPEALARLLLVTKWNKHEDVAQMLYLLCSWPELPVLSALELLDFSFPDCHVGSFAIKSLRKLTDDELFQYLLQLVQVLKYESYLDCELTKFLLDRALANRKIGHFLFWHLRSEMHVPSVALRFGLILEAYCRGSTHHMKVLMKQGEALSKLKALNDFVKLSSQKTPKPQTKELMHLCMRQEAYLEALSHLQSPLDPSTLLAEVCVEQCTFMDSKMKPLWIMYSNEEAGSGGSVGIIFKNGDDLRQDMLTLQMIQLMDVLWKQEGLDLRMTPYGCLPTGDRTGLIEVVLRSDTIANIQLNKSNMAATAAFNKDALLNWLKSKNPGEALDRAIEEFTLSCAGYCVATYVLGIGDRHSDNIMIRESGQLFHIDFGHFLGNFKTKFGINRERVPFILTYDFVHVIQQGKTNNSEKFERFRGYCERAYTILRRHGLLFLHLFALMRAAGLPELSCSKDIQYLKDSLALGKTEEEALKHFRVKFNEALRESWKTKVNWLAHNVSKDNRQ
Sequence (P27986 whole entry partner, species assumed): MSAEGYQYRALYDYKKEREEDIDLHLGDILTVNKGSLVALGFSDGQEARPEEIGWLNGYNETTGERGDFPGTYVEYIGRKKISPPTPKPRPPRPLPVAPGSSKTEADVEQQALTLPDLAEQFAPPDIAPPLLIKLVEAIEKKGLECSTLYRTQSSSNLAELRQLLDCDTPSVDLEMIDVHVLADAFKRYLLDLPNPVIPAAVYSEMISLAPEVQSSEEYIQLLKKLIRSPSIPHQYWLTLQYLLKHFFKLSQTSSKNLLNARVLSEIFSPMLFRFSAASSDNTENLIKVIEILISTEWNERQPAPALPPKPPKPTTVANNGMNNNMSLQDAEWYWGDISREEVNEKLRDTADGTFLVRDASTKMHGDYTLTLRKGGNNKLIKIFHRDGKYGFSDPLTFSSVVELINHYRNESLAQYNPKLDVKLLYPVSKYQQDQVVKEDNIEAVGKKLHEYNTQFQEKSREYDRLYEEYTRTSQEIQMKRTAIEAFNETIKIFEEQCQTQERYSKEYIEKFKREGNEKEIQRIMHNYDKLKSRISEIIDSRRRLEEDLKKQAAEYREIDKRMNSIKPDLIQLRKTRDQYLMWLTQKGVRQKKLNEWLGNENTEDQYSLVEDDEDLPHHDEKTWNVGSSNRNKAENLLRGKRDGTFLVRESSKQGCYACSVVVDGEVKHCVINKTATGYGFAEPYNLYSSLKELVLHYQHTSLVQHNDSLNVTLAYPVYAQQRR
run description: PI3K δ kinase assay
Type: biochemical
assay setup: Table 2

| compound | study system | IC50 |
| --- | --- | --- |
| Nc1ncnc2c1c(-c1cc3cccc(O)c3[nH]1)nn2C1CCCC1 [Compound 36] | PI3K δ (Homo sapiens, UniProt O00329) | 100 to 500 nM |
| Nc1ncnc2c1c(-c1cc3cc(O)ccc3[nH]1)nn2CC(=O)N1CCOCC1 [Compound 34] | PI3K δ (Homo sapiens, UniProt O00329) | > 500 nM |
| CC(C)n1nc(-c2cc3ccc(O)cc3[nH]2)c2c(N)ncnc21 [Compound 21] | PI3K δ (Homo sapiens, UniProt O00329) | 100 to 500 nM |
| CC(C)n1nc(-c2cc3cccc(Cl)c3[nH]2)c2c(N)ncnc21 [Compound 50] | PI3K δ (Homo sapiens, UniProt O00329) | 100 to 500 nM |
| Nc1ncnc2c1c(-c1cc3cc(O)ccc3[nH]1)nn2Cc1cccnc1 [Compound 38] | PI3K δ (Homo sapiens, UniProt O00329) | > 500 nM |
| CC(C)n1nc(-c2cc3cc(O)cc(F)c3[nH]2)c2c(N)ncnc21 [Compound 16] | PI3K δ (Homo sapiens, UniProt O00329) | 50 to 100 nM |
| Nc1ncnc2c1c(-c1cc3cccc(O)c3[nH]1)nn2C1CCOCC1 [Compound 62] | PI3K δ (Homo sapiens, UniProt O00329) | 50 to 100 nM |
| CC(C)n1nc(-c2cc3cccc(O)c3[nH]2)c2c(N)ncnc21 [Compound 11] | PI3K δ (Homo sapiens, UniProt O00329) | 100 to 500 nM |
| CC(=O)N1CCC(n2nc(-c3cc4cc(O)cc(Cl)c4[nH]3)c3c(N)ncnc32)CC1 [Compound 70] | PI3K δ (Homo sapiens, UniProt O00329) | 10 to 25 nM |
| COc1cc(Cl)c2[nH]c(-c3nn(C4CCOCC4)c4ncnc(N)c34)cc2c1 [Compound 67] | PI3K δ (Homo sapiens, UniProt O00329) | > 500 nM |
| CC(C)n1nc(-c2cc3cc(O)cc(Cl)c3[nH]2)c2c(N)ncnc21 [Compound 15] | PI3K δ (Homo sapiens, UniProt O00329) | 25 to 50 nM |
| COc1cccc2cc(-c3nn(C4CCN(C(=O)C5CC5)CC4)c4ncnc(N)c34)[nH]c12 [Compound 66] | PI3K δ (Homo sapiens, UniProt O00329) | > 500 nM |
| Nc1ncnc2c1c(-c1cc3cc(O)ccc3[nH]1)nn2C1CCOCC1 [Compound 42] | PI3K δ (Homo sapiens, UniProt O00329) | 50 to 100 nM |
| CC(C)n1nc(-c2cc3c(O)cccc3[nH]2)c2c(N)ncnc21 [Compound 37] | PI3K δ (Homo sapiens, UniProt O00329) | 100 to 500 nM |
| COc1ccc(Cl)c2cc(-c3nn(C4CCOCC4)c4ncnc(N)c34)[nH]c12 [Compound 61] | PI3K δ (Homo sapiens, UniProt O00329) | > 500 nM |
| Nc1ncnc2c1c(-c1cc3cc(O)ccc3[nH]1)nn2C1CCN(C(=O)C2CC2)CC1 [Compound 31] | PI3K δ (Homo sapiens, UniProt O00329) | 100 to 500 nM |
| COCCn1nc(-c2cc3cc(O)ccc3[nH]2)c2c(N)ncnc21 [Compound 40] | PI3K δ (Homo sapiens, UniProt O00329) | > 500 nM |
| CC(=O)N1CCC(n2nc(-c3cc4cc(O)ccc4[nH]3)c3c(N)ncnc32)CC1 [Compound 30] | PI3K δ (Homo sapiens, UniProt O00329) | > 500 nM |
| CNC(=O)Cn1nc(-c2cc3cc(O)ccc3[nH]2)c2c(N)ncnc21 [Compound 35] | PI3K δ (Homo sapiens, UniProt O00329) | > 500 nM |
| Nc1ncnc2c1c(-c1cc3cc(O)ccc3[nH]1)nn2CCN1CCOCC1 [Compound 33] | PI3K δ (Homo sapiens, UniProt O00329) | > 500 nM |
